Listed next: entries and their corresponding binding signal.
# measured on: T1, RBFOX1 RRM RbFoxmut (Fox-RRM*) (Homo sapiens, UniProt Q9NWB1 109-208, R118D;E147R;N151S;E152T)
# T1 sequence: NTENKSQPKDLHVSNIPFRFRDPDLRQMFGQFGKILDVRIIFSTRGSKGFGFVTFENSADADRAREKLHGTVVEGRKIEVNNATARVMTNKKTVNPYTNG
# experimental protocol: EMSA; HiTS-Eq, 1 nM pool, 10 min; buffer printed only for the single-RNA assays: 10 mM Tris pH 7.5, 150 mM NaCl, 3.4 mM EDTA, 0.001% NP-40, 30 C
# applied conditions: tags: His6 N-terminal (pET28a); label: 5' 32P
Over roughly 16,000 sequences, “ka relative to ugcaugu” has its median near 0.096; the highest 2% begin near 0.35. This excerpt belongs to a sample that is enriched for the highest values.
parameter measured: binding signal

{"columns": ["binder", "observed"],
 "data": [
  ["CUGCUUG (DNA:RNA) RNA: GGGAGACCGGAAUUCAGAUUGUCCCUGCUUGUUAAAUCCCGUCGUAGCCACCA DNA 1: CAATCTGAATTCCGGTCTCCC DNA 2: TGGTGGCTACGACGGGATT", "0.423 KA relative to UGCAUGU"],
  ["CCCCUGC (DNA:RNA) RNA: GGGAGACCGGAAUUCAGAUUGUCCCCCCUGCUUAAAUCCCGUCGUAGCCACCA DNA 1: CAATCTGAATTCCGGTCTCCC DNA 2: TGGTGGCTACGACGGGATT", "0.0955 KA relative to UGCAUGU"],
  ["GUCCCGG (DNA:RNA) RNA: GGGAGACCGGAAUUCAGAUUGUCCGUCCCGGUUAAAUCCCGUCGUAGCCACCA DNA 1: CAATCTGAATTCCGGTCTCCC DNA 2: TGGTGGCTACGACGGGATT", "0.0859 KA relative to UGCAUGU"],
  ["AAGGCAA (DNA:RNA) RNA: GGGAGACCGGAAUUCAGAUUGUCCAAGGCAAUUAAAUCCCGUCGUAGCCACCA DNA 1: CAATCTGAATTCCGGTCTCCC DNA 2: TGGTGGCTACGACGGGATT", "0.061 KA relative to UGCAUGU"],
  ["UGCUUGC (DNA:RNA) RNA: GGGAGACCGGAAUUCAGAUUGUCCUGCUUGCUUAAAUCCCGUCGUAGCCACCA DNA 1: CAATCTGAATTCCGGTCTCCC DNA 2: TGGTGGCTACGACGGGATT", "0.264 KA relative to UGCAUGU"],
  ["UGCUGCU (DNA:RNA) RNA: GGGAGACCGGAAUUCAGAUUGUCCUGCUGCUUUAAAUCCCGUCGUAGCCACCA DNA 1: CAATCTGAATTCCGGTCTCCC DNA 2: TGGTGGCTACGACGGGATT", "0.12 KA relative to UGCAUGU"],
  ["GGUUCGG (DNA:RNA) RNA: GGGAGACCGGAAUUCAGAUUGUCCGGUUCGGUUAAAUCCCGUCGUAGCCACCA DNA 1: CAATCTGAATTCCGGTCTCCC DNA 2: TGGTGGCTACGACGGGATT", "0.126 KA relative to UGCAUGU"],
  ["GUUCGGG (DNA:RNA) RNA: GGGAGACCGGAAUUCAGAUUGUCCGUUCGGGUUAAAUCCCGUCGUAGCCACCA DNA 1: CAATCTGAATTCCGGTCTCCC DNA 2: TGGTGGCTACGACGGGATT", "0.0874 KA relative to UGCAUGU"],
  ["GGUUAUG (DNA:RNA) RNA: GGGAGACCGGAAUUCAGAUUGUCCGGUUAUGUUAAAUCCCGUCGUAGCCACCA DNA 1: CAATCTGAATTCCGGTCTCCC DNA 2: TGGTGGCTACGACGGGATT", "0.585 KA relative to UGCAUGU"]
]}
